Taken from the supplement of paper PMC9170038.

Test system: MS2 coat protein
test.summary: apparent KD of MS2 coat protein; higher = weaker reporter binding
run.parameters: Eterna round: R107; input ligand: theophylline 2 mM
measured.metric: apparent KD of MS2 coat protein (µM)
# output: bare number, implied unit µM

Take a look at these entries with their results.
[[record]]
residue_string = "UACAUGAGGAUCACCCAUGUAUUGCCGGUACGAGGACCGGUACGGCCGCCACUCGGAGCAUGAGGAUCACCCAUGUGCUGCUAUG [Same State Trypophan A GF 24]"
measured_metric = "apparent KD of MS2 coat protein"
val = 0.0837

[[record]]
residue_string = "AGGACAUGAGGAUCACCCAUGUACACUGAAGGAGCGUCGAGAACGACAGGUAGGUCGCAGGCUAAGGAAGGUGAUGCUCAAGAAG [Exclusion Arginine A GF6]"
measured_metric = "apparent KD of MS2 coat protein"
val = 0.0298


I'd like to know its apparent KD of MS2 coat protein. The sequence in question is AGGUGACAUGAGGAUCACCCAUGUGGCUUACGAGGACCGGUACGGCCGCCACUCGGUGUGACCUCCGCAUUCACAUAAUAAUCUU [Rilala] 0.126

###

Form field: apparent KD of MS2 coat protein (one value per entry).
Test system: MS2 coat protein
test.summary: apparent KD of MS2 coat protein; designed switch direction (-1 OFF switch, 1 ON switch): -1; higher = weaker reporter binding
run.parameters: input ligand: microRNA oligo, concentration not stated
# output: bare number, implied unit nM

Take a look at these entries with their results.
[[record]]
residue_string = "ACAUGAGGAUCACCCAUGUCAGGCGGGUCCACUCCGGCUGUUGAGGAUAUAGCCCGGUAUCCGCGCUAGAAGGUGAGGGCCGGC [Aenatbe mod 25] (Eterna round: R96, puzzle: Exclusion NG 3)"
measured_metric = "apparent KD of MS2 coat protein"
val = 18.4

[[record]]
residue_string = "GUCAGCUCGUCAGGAUAUACAUCACUGCUUCGGCAGUGUAUUAAGAUCACAUGAGGAUCACCCAUGUAGAAGGGACGAGCUGAU [ENG2/2-B2] (Eterna round: R96, puzzle: Exclusion NG 2)"
measured_metric = "apparent KD of MS2 coat protein"
val = 18.4


I'd like to know its apparent KD of MS2 coat protein. The sequence in question is UUGCAGUCGUCAGGAUAUAGUAUUACGGCCUUUUAUUUUUUCAUACAUGAGGAUCACCCAUGUCGCUAGAAGGGAUUAUCGAUU [salish99_ExNG2_r04_104] (Eterna round: R96, puzzle: Exclusion NG 2) 31.6

###

Form field: apparent KD of K4 kissing-loop reporter (one value per entry).
Tested on: K4 kissing-loop RNA reporter;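 note: bound reporter read as fluorescence of individual clusters on recovered sequencing chips by microscopy, with normalized cluster intensities fitted with a binding model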
test.summary: apparent KD of K4 kissing-loop reporter; higher = weaker reporter binding
run.parameters: Eterna round: R107; input ligand: tryptophan 2.4 mM
# output: bare number, implied unit nM

[[record]]
residue_string = "GGUGCUGUCUGUGCCGCCCUCCUCGUCCCUCGAGGACCGGUACGGCCGCCACUCGAGUGAUGUUCGGGUAGCCAUCCCUGCCAGC [BDazzled - #20 Exc. Tryptophan A]"
target_of_assay = "K4 kissing-loop RNA reporter"
val = 322

[[record]]
residue_string = "UGUAAUUCGGCGGCCGCCACUGACCAUAGCCUUCGAUGGCCAGUGAUGUUGGCCUCUGGCUCUAACAGGACCGGGCCGAAUUGCG [Sotetiqu]"
target_of_assay = "K4 kissing-loop RNA reporter"
val = 116

[[record]]
residue_string = "UUCGAAAGUCGAAGGAGCGCUGUCGGUCAUAGACCAUAUCUGUAGUGAUGUUACAGAUGACAGCAGGUAGGUCGCGACAGAGACA [Arg B SS t18]"
target_of_assay = "K4 kissing-loop RNA reporter"
val = 144

[[record]]
residue_string = "UGAUAGGACAGAAGGAGCGGUAGUGAUGUUACCAAAAGGUUAAGGUGUCAAAAGACACCCUACCAGGUAGGUCGCUGUCCUAUCU"
target_of_assay = "K4 kissing-loop RNA reporter"
val = 136

[[record]]
residue_string = "GCCGCCGCGGCAGGAUAUAGACAUUGAGUGAUGUUCGGUGCUUAUCCAAAGUGCUGUUUCGGCCAACUAGAAGGGCCGCGGCGGC"
target_of_assay = "K4 kissing-loop RNA reporter"
val = 119


What reported apparent KD of K4 kissing-loop reporter corresponds to AAAAUAAUCCAGUGAUGUUGGUAUUCAGAUACCAGCGACGAAAGUCGCCCUUGGCAGCUGUGGACGUACAAAAUAAGUACGUCCU on K4 kissing-loop RNA reporter? 660
